Tested on: giant foxtail
Assay: Test A postemergence
Format: in vivo, Setaria faberii
Conditions: 125 g ai/ha, 0 to 100 scale where 0 is no effect and 100 is complete control
Recorded Plant response rating, Foxtail, Giant, one value per entry.
ASSAY_METRIC: Plant response rating, Foxtail, Giant

{"columns": ["MOLECULE", "MEASURED_RESULT"],
 "data": [
  ["Fc1cnc(Oc2ccccc2-n2cc(Cl)cn2)nc1 [Compound 11]", 70],
  ["FC(F)(F)c1cccc(Oc2ncc(Cl)cn2)c1-n1cc(Br)cn1 [Compound 64]", 80],
  ["Cc1nn(-c2ccccc2Oc2ncc(Cl)cn2)cc1Cl [Compound 39]", 0]
]}
